- Test system: SNB-19 CNS
- Assay Explanation: NCI-60 one-dose screen, 48 h (100 = growth as untreated, 0 = no growth, -100 = all killed)
- Assay Setup: 10 µM unless noted
The panel holds about 83,000 compounds, 20% with a hit somewhere; the sample as a whole holds those more often.
Each entry below carries its reported growth.
Measured Property: growth (%)

* CCS(=O)(=O)N1CCN(c2ccc(Nc3ncc(C(N)=O)c(NC4CC4)n3)cc2)CC1 | 105
* COc1ccc(C(=O)N2c3ccccc3Sc3ccccc32)c(F)c1 | 35.8
* Cn1c(=O)c(F)c(Nc2ccc(I)cc2F)c2c(=O)n(C[C@@H](O)CO)cnc21 | 42.6
* COc1ccc2c(c1OC)C(=O)O[C@@H]2[C@H]1c2c(c(C#CC#Cc3ccc(F)c(F)c3)c3c(c2OC)OCO3)CCN1C | 103
* CCCCn1c(C)nc2cc(Nc3nc(N4CCCCC4)nc4nc[nH]c34)ccc21 | 73.3
* CC1(O)CC(c2nc(-c3ccc4ccc(-c5ccccc5)nc4c3)c3c(N)nccn23)C1 (stereo not given) | 64.7
* O=S1(=O)OC(c2ccc(O)c(Cl)c2)(c2ccc(O)c(Cl)c2)c2ccccc21 | 103
* O=c1sn(-c2cccc3ccccc23)c(=O)n1Cc1ccccc1 | 101
* Cc1cnc(NC(=O)Nc2cc(Br)c(C)cc2OC[C@@H]2CNCCO2)cn1 | 39.7
* COCC(=O)NC/C=C/c1ccc2ncnc(Nc3ccc(Oc4ccc(C)nc4)c(C)c3)c2c1 | 77.9
